Reference for the values: PubChem BioAssay AID743341

assay: rescue of myotube length under simvastatin, confirmation, orthogonal assay for statin myotoxicity suppressor project, imaging, C2C12 myotubes, MHC immunostaining, dry powder (AID 743341); conditions: C2C12 myotubes + simvastatin, MHC imaging tube length, 48 h; at 19.5 µM (top of the series)
Inconclusive results are not listed.
Each entry gets criterion not met if its rescue of myotube length stays under 10%, and criterion met if its rescue of myotube length is 10% or above.

                               given_smiles        class_label
0  COc1ccc(-c2ccc([C@@H]3[C@@H](C#N)N(C(=O)NC4CCCC4)[C@H]3CO)cc2)cc1  criterion not met
1  O=C(C[C@H]1CC[C@@H]2[C@H](COC[C@@H](O)CN2Cc2ccc(Oc3ccccc3)cc2)O1)N1CCCCC1      criterion met
2  O=C(C[C@H]1CC[C@@H]2[C@H](COC[C@H](O)CN2CCC(F)(F)F)O1)NCc1ccc(Oc2ccccc2)cc1  criterion not met

(Q) Decide: is the reported value of rescue of myotube length for N#C[C@H]1[C@@H](c2ccc(-c3cccc(F)c3)cc2)[C@H](CO)N1C(=O)NC1CCCC1 equal to or greater than 10%?
(A) criterion not met

(Q) Exam item: decide whether the reported rescue of myotube length for N#C[C@@H]1[C@@H](c2ccccc2-c2ccc(F)cc2)[C@H](CO)N1C(=O)NC1CCCC1 is at least 10%.
(A) criterion met

(Q) Please tell me: is the compound C[C@H]1CN([C@@H](C)CO)C(=O)c2cc(NC(=O)Nc3cccc4ccccc34)ccc2O[C@H]1CN(C)Cc1ccc(C(=O)Nc2ccccc2N)cc1 at or over 10% in terms of rescue of myotube length?
(A) criterion met

(Q) For this compound, is measured rescue of myotube length 10% or higher? COc1ccc(C#Cc2cnc3c(c2)C(=O)N([C@H](C)CO)C[C@H](C)[C@H](CN(C)Cc2ccccc2)O3)cc1OC
(A) criterion not met

(Q) Exam item: decide whether the reported rescue of myotube length for CCCNC(=O)N1[C@H](CO)[C@H](c2ccccc2)[C@@H]1C#N is at least 10%.
(A) criterion not met

---

Here, each record is paired with measured rescue of myotube length data.
experiment: rescue of myotube length under simvastatin, confirmation, orthogonal assay for statin myotoxicity suppressor project, imaging, C2C12 myotubes, MHC immunostaining, dry powder (AID 743341); conditions: C2C12 myotubes + simvastatin, MHC imaging tube length, 48 h; at 19.5 µM (top of the series)
Results filed as inconclusive are left out.
Dear colleague, please return just the value in %, with no unit written.

Example entries and their recorded answers appear below.
>>> df
                               given_smiles                 parameter  test_value
0  C[C@@H]1CN([C@@H](C)CO)C(=O)c2cc(NS(=O)(=O)c3ccc(Cl)cc3)ccc2O[C@H]1CN(C)C(=O)Nc1cccc2ccccc12  rescue of myotube length       -1.68
1  C[C@@H]1CN([C@H](C)CO)C(=O)Cc2cc(NC(=O)CCCCCC(=O)Nc3ccccc3N)ccc2O[C@@H]1CN(C)Cc1ccc(Oc2ccccc2)cc1  rescue of myotube length       -9.32

(Q) Find the recorded rescue of myotube length belonging to N#C[C@H]1[C@H](c2ccc(C#CCC3CCCC3)cc2)[C@@H](CO)N1C(=O)CN1CCOCC1 and report it.
(A) 14.6

---

assay: rescue of myotube length under simvastatin, confirmation, orthogonal assay for statin myotoxicity suppressor project, imaging, C2C12 myotubes, MHC immunostaining, dry powder (AID 743341); conditions: C2C12 myotubes + simvastatin, MHC imaging tube length, 48 h; at 19.5 µM (top of the series)
Records with an inconclusive call do not appear.
// values below are reported rescue of myotube length
// units = %; emit number, no label

(Q) Item COc1ccc(S(=O)(=O)Nc2cccc3c2O[C@H](CN(C)C(=O)Nc2ccc(F)cc2)[C@H](C)CN([C@@H](C)CO)C3=O)cc1 has what recorded rescue of myotube length?
(A) -2.59

(Q) What does the record list as rescue of myotube length for COc1ccc(S(=O)(=O)Nc2ccc3c(c2)CC(=O)N([C@H](C)CO)C[C@H](C)[C@@H](CN(C)Cc2ccc(Cl)c(Cl)c2)O3)cc1 ?
(A) -14.2

(Q) Look up rescue of myotube length for this compound: N#C[C@@H]1[C@@H](c2ccc(C3=CCCCC3)cc2)[C@H](CO)N1C(=O)NC1CCCC1
(A) 9.82

(Q) What does the record list as rescue of myotube length for N#C[C@H]1[C@@H](c2ccc(-c3cccc(F)c3)cc2)[C@@H](CO)N1C(=O)NC1CCCC1 ?
(A) -4.89

---

experiment: rescue of myotube length under simvastatin, confirmation, orthogonal assay for statin myotoxicity suppressor project, imaging, C2C12 myotubes, MHC immunostaining, dry powder (AID 743341); settings: C2C12 myotubes + simvastatin, MHC imaging tube length, 48 h; at 19.5 µM (top of the series)
Inconclusive results are not listed.
parameter: rescue of myotube length (%)
Form entry: value (%) — number only.

                               given_smiles  unit_spec  test_value
0  N#C[C@@H]1[C@@H](c2ccc(-c3cccc(F)c3)cc2)[C@H](CO)N1C(=O)c1cccnc1          %        12.6
1  Cc1ccc(S(=O)(=O)Nc2ccc3c(c2)CC(=O)N([C@@H](C)CO)C[C@@H](C)[C@H](CN(C)Cc2ccc(-c4ccccc4)cc2)O3)cc1          %       -2.54
2  COc1ccc(S(=O)(=O)Nc2ccc3c(c2)CC(=O)N([C@H](C)CO)C[C@@H](C)[C@H](CN(C)CC2CCCCC2)O3)cc1          %       -8.93
3  N#C[C@H]1[C@H](c2ccc(-c3cccc(F)c3)cc2)[C@H](CO)N1C(=O)NC1CCCC1          %        14.9
4  CCCC#Cc1ccc([C@H]2[C@@H](C#N)N(S(=O)(=O)c3cccc(F)c3)[C@H]2CO)cc1          %        4.16
5  Cc1noc(C)c1S(=O)(=O)Nc1ccc2c(c1)CC(=O)N([C@H](C)CO)C[C@H](C)[C@@H](CN(C)Cc1ccc(C(F)(F)F)cc1)O2          %       -1.01
6  N#C[C@@H]1[C@@H](c2ccc(-c3cccc(F)c3)cc2)[C@@H](CO)N1C(=O)NC1CCCC1          %         3.2
7  Cc1ccc(S(=O)(=O)N(C)C[C@@H]2Oc3ccc(NS(=O)(=O)c4ccc(Cl)cc4)cc3C(=O)N([C@H](C)CO)C[C@@H]2C)cc1          %        3.15

(Q) Reported rescue of myotube length, compound N#C[C@@H]1[C@H](c2ccc(-c3cccc(F)c3)cc2)[C@@H](CO)N1C(=O)NC1CCCC1 : ____
(A) 12.9

(Q) So what's the measured rescue of myotube length for this one? COc1ccc(S(=O)(=O)N(C)C[C@H]2Oc3c(NC(=O)Nc4ccccc4)cccc3C(=O)N([C@H](C)CO)C[C@H]2C)cc1
(A) 3.68

(Q) Consider the compound shown here: CN1C(=O)c2cc(NC(=O)c3ccc(F)c(F)c3)ccc2OC[C@H]2O[C@@H](CC(=O)Nc3ccc4c(c3)COC4)CC[C@@H]21 What is its recorded rescue of myotube length?
(A) 12.6

(Q) Which value of rescue of myotube length has been reported for CCCNC(=O)N1[C@H](C#N)[C@@H](c2ccc(C3=CCCCC3)cc2)[C@@H]1CO in the records?
(A) 22.8

(Q) Record request: rescue of myotube length value, item C[C@@H]1CN([C@H](C)CO)C(=O)Cc2cc(NS(=O)(=O)c3cn(C)cn3)ccc2O[C@@H]1CN(C)Cc1ccc(Cl)c(Cl)c1
(A) 24

---

experiment: rescue of myotube length under simvastatin, confirmation, orthogonal assay for statin myotoxicity suppressor project, imaging, C2C12 myotubes, MHC immunostaining, dry powder (AID 743341); conditions: C2C12 myotubes + simvastatin, MHC imaging tube length, 48 h; at 19.5 µM (top of the series)
Records with an inconclusive call do not appear.
parameter: rescue of myotube length (%)
Kindly answer with a numeric value in %, unit omitted.

Worked examples follow.
                               given_smiles                 parameter  test_value
0  C[C@@H]1CN([C@H](C)CO)C(=O)Cc2cc(NS(=O)(=O)c3ccc(Cl)cc3)ccc2O[C@H]1CN(C)Cc1ccccc1  rescue of myotube length       0.917
1  COc1ccc(C#Cc2cnc3c(c2)C(=O)N([C@H](C)CO)C[C@H](C)[C@@H](CN(C)C(=O)Nc2cccc(OC)c2)O3)cc1  rescue of myotube length        30.4
2  N#C[C@@H]1[C@@H](c2ccc(C#Cc3cccnc3)cc2)[C@@H](CO)N1C(=O)C1CCCC1  rescue of myotube length        5.74
3  COc1ccc(CN(C)C[C@H]2Oc3ccc(NS(=O)(=O)c4ccc(Cl)cc4)cc3CC(=O)N([C@@H](C)CO)C[C@@H]2C)cc1  rescue of myotube length         -19
4  N#C[C@@H]1[C@@H](c2ccccc2-c2cccc(F)c2)[C@H](CO)N1C(=O)NC1CCCC1  rescue of myotube length        10.7
5  C[C@H](CO)N1C[C@H](C)[C@@H](CN(C)Cc2ccc(Oc3ccccc3)cc2)Oc2c(NC(=O)Nc3cccc4ccccc34)cccc2C1=O  rescue of myotube length        14.7
6  N#C[C@H]1[C@H](c2ccc(C#Cc3ccc(F)cc3)cc2)[C@H](CO)N1c1nc(-c2ccccc2)cs1  rescue of myotube length        25.1
7  CN(C)C(=O)c1cccc(-c2ccc([C@@H]3[C@@H](C#N)N(C(=O)C4CCCC4)[C@@H]3CO)cc2)c1  rescue of myotube length        13.3

(Q) Given the compound C[C@H](CO)N1C[C@H](C)[C@@H](CN(C)Cc2ccc(Cl)c(Cl)c2)Oc2ccc(NC(=O)C3CC3)cc2CC1=O , what is its reported rescue of myotube length?
(A) -6.48

(Q) What measured rescue of myotube length goes with C/C=C/c1ccc([C@H]2[C@@H](CO)N(C(=O)NC3CCCC3)[C@H]2C#N)cc1 ?
(A) 12.4
